- measurement-target: Concanavalin-A (Canavalia ensiformis) (UniProt P02866)
- Sequence (P02866 whole entry, looked up): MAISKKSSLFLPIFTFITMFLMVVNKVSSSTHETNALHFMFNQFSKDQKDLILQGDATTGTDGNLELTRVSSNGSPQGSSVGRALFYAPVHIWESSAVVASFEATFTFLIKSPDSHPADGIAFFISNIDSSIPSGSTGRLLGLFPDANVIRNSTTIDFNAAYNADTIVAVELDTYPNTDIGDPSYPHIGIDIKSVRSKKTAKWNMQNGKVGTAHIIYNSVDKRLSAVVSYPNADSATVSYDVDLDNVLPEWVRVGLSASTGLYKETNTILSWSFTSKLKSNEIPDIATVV
- assay-notes: ConA small-molecule binders, primary screen, artefact control for SMM control protein annotation, biochemical, small-molecule microarray, Alexa647 label, 635 nm (AID 1127);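 also: z combines 667 nm emission intensity with signal-to-noise across three replicate slides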
- condition-summary: ConA-A647 binding fluorescence, higher = more signal
Short version: composite z-score at least 0.8 is rule met, less is rule not met.

Some solved entries appear below for comparison.
C=CCC(OC(C)=O)[C@@H]1[C@@H](N(Cc2cccc3ccccc23)C(=O)c2ccc(C)cc2)c2cc(OCCCO)ccc2N1C(=O)c1ccc2ccccc2n1 (stereo partly drawn) : rule not met
COC(=O)C(CC#Cc1ccc2c(c1)[C@]1(C(=O)N2)[C@H](c2ccc(O)cc2)N2[C@H](c3ccccc3)[C@H](c3ccccc3)OC(=O)[C@H]2[C@@H]1C(=O)N1CCc2cc(OC)c(OC)cc2C1)C(=O)OC : rule met

Is reported composite z-score greater than or equal to 0.8 here: "C=CC[C@]1(C(=O)NCCCOC)N=C(c2ccc(OCCCO)cc2)O[C@H]1c1ccccc1"
rule not met

Is reported composite z-score greater than or equal to 0.8 here: "C[N+](C)(C)CCCCCCNC(=O)[C@H]1C[C@H]2C(=O)NCC(=O)N2[C@H]1c1cccc(OCCO)c1"
rule met

Is reported composite z-score greater than or equal to 0.8 here: "C=CC[C@@]1(C(=O)O)N=C(c2ccc(OCCCO)cc2)O[C@@H]1c1ccccc1CN=[N+]=[N-]"
rule met

Is reported composite z-score greater than or equal to 0.8 here: "CC(=O)NCCCC[C@@H]1NC(=O)[C@@H]2C[C@H](C(=O)NCCCCCC[N+](C)(C)C)[C@H](c3ccc(O)cc3)N2C1=O"
rule not met

Is reported composite z-score greater than or equal to 0.8 here: CCCCN1CC=CC23O[C@@H]4/C=C\CCC(C)OC(=O)C4[C@H]2C(=O)N(C(C)CO)[C@@H]3C1=O (stereo partly drawn)
rule not met

Is reported composite z-score greater than or equal to 0.8 here: "COC(=O)c1ccc([C@H](NC(=O)c2ccccc2)[C@]2(C)C[C@H]2C2CCCCC2)cc1"
rule not met

Is reported composite z-score greater than or equal to 0.8 here: "CC(C)CNC(=O)[C@@]1(C)c2ccccc2C(=O)N(Cc2cc(F)cc(C(F)(F)F)c2)[C@H]1c1ccc(CO)cc1"
rule not met

* * *

- measurement-target: Neurogenic locus notch homolog protein 3 (Homo sapiens) (UniProt Q9UM47)
- Sequence (Q9UM47 whole entry, looked up): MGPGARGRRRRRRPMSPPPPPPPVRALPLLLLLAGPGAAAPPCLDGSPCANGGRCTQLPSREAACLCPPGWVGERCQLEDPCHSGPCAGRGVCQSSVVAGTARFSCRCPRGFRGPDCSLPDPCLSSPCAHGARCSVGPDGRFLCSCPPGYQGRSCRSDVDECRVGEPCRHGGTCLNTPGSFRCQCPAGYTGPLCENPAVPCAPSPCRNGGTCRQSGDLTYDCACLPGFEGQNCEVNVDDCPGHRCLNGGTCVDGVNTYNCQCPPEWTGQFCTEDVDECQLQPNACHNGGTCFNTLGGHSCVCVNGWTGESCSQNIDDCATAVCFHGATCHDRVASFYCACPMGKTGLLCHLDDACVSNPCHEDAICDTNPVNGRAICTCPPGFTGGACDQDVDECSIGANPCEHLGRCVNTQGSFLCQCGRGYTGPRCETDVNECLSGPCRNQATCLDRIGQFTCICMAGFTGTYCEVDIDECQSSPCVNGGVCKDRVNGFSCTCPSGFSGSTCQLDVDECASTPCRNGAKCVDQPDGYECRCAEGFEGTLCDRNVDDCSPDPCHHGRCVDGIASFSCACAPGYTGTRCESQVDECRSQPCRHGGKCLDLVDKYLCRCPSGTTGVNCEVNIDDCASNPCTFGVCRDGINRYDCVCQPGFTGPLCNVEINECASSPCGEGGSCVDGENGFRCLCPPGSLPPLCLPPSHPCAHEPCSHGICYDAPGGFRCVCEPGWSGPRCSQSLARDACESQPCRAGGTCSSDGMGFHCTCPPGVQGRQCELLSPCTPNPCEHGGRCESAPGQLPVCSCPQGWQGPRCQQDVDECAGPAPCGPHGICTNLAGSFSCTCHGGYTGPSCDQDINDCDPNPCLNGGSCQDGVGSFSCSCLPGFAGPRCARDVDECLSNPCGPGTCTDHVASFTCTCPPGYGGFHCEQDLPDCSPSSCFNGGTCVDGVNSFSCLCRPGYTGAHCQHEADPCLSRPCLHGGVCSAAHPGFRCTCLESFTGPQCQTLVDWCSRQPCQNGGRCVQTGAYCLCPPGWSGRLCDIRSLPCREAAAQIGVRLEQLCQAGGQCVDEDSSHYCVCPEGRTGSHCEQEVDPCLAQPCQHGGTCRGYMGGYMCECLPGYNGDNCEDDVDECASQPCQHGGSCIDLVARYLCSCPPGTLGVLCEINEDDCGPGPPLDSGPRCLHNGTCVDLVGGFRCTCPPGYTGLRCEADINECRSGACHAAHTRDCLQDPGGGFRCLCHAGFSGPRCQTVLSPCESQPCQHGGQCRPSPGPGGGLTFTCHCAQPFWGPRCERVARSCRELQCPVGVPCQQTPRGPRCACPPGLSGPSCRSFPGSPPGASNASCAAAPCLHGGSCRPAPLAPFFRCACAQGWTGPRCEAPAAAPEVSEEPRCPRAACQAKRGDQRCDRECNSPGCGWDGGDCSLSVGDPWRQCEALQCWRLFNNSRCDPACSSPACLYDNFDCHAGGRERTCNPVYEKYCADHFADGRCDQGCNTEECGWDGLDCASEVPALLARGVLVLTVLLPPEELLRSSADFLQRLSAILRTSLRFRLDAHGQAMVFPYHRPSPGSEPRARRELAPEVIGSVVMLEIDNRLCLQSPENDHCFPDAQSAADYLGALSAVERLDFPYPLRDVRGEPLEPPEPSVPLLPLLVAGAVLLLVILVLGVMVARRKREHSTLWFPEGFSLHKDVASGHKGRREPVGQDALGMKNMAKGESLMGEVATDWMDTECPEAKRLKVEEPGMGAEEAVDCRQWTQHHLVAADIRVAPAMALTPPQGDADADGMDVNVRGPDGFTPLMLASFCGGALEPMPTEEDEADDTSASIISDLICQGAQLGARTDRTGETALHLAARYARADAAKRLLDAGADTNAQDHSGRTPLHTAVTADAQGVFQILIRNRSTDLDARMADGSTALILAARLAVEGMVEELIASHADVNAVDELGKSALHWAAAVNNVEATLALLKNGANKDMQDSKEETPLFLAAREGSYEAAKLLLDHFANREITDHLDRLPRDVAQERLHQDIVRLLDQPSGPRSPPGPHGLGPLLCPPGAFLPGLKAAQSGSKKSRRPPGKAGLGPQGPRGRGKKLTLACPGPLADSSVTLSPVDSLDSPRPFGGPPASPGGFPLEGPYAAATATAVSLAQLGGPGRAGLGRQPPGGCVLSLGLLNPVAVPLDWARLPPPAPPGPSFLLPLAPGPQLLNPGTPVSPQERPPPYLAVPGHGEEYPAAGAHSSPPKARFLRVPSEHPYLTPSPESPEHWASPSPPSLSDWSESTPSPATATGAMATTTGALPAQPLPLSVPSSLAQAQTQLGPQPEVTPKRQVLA
- assay-notes: NOTCH3 binders on small-molecule microarray, primary screen, biochemical, 635/667 nm fluorescence (AID 1096)
- condition-summary: NOTCH3 binding, 635 nm fluorescence, higher = more signal
Quick reference: composite z-score of the listed items.
Lab note: record the figure alone, no unit after it.

Worked cases, composite z-score given:
COCCOC(=O)N1C(=O)[C@@]2(c3cc(C#CC4=CCCCC4)ccc31)[C@H](c1ccc(OCCO)cc1)N1[C@H](c3ccccc3)[C@H](c3ccccc3)OC(=O)[C@H]1[C@@H]2C(=O)N1CCCCCCC1 : 1.07
Cc1ccc(F)cc1S(=O)(=O)N[C@@H]1CCN(Cc2ccc3[nH]ccc3c2)C1 : 0.933
C=CCN1C(=O)[C@]2(O[C@H](CCn3cc([C@H](O)c4ccccc4)nn3)[C@@H]([Si](C)(C)c3ccc(OC)cc3)[C@@H]2C)c2cc(N3C(=O)c4cccc5cccc3c45)ccc21 : 0.232
CCCCCN1CC=CC23O[C@@H]4C=CCOC(=O)[C@@H]4[C@H]2C(=O)N(CCCCCO)[C@@H]3C1=O (stereo partly specified) : 0.103
COC(=O)C1=CC(CCCO)=CC(c2ccc(CN3CCCC3)cc2)N(Cc2sc3ccccc3c2Cl)C=C1C(=O)OC (stereo unspecified) : 1.04

Moving on to the next molecule.
I would be grateful if you could share the reported composite z-score for CC(C)C[C@@H]1NC(=O)[C@@]23C(=O)N[C@@H](Cc4ccccc4)C2[C@H](C)[C@@]2(C)O[C@H]2C3/C=C/C/C=C\CNC(=O)[C@@H](CC(C)C)NC1=O (stereo partly specified) .
0.895
